TESTED_ON: Tyrosyl-tRNA synthetase, putative (Trypanosoma cruzi (strain CL Brener))
EXPERIMENTAL_PROTOCOL: Trypanosoma cruzi tyrosyl tRNA synthetase (TcYRS) _High Tyrosine SOP
Assay type: functional
Design: scale not given: in the data most compounds retested in dose-response had high values
PARTICULARS: 30 µM
Percent Effect: recorded values
The reply should contain only the number, in %.

Worked set:
>>> observed("N#Cc1ccc(CN2CCN(C(=O)C3CCC3)[C@@H]3CS(=O)(=O)C[C@@H]32)cc1")
4.3
>>> observed("O=C(c1ccc[nH]1)N1CCN(CC2CCOc3ccccc3C2)CC1 (stereo unspecified)")
3.16

Query: Value lookup for Percent Effect; key = CC(C)n1ncc2c1NC(=O)CSC2C(C)(C)C (stereo unspecified)
Reply: 5.29

Query: Value lookup for Percent Effect; key = Cc1cn2c(n1)CCC(NC(=O)CCC(F)(F)F)C2 (stereo unspecified)
Reply: 3.45

Query: Value lookup for Percent Effect; key = CN1CCOC(CNCc2cccc(OCc3ccccn3)c2)C1 (stereo unspecified)
Reply: 7.39

Query: Value lookup for Percent Effect; key = O=C(Nc1cccc(CNCc2csc(Br)c2)c1)C1CC1
Reply: 3.45

Query: Value lookup for Percent Effect; key = CCOCCC(=O)N1CCCC(c2ncc[nH]2)C1 (stereo unspecified)
Reply: 2.15

Query: Value lookup for Percent Effect; key = COc1ccc(CN2C[C@@H](OCc3ccccn3)[C@H]3COC[C@H]32)cc1
Reply: -1.08

Query: Value lookup for Percent Effect; key = Cc1nn(C)c(C)c1CCC(=O)N1CCCC1Cn1cccn1 (stereo unspecified)
Reply: 1.98

Query: Value lookup for Percent Effect; key = Cc1ccc(C(=O)N2CCN(Cc3nc(C(C)C)no3)CC2)c(=O)[nH]1
Reply: 1.98

Query: Value lookup for Percent Effect; key = Cc1cccc(CN2CCC3(CCCN(C(=O)NC4CC4)C3)C2=O)n1 (stereo unspecified)
Reply: 1.06
